- System: T1, PDZD2_2, O15018
- T1 sequence (O15018 329-429, limits assumed, looked up): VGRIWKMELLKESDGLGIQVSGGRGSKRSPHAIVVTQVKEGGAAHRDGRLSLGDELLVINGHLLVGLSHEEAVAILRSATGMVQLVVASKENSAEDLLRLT
- Assay explanation: holdup assay
- Set-up: key: below the threshold = too weak to quantify, mostly under pKd 3.1 to 4
- Stated conditions: plain residues with an end cap or a label only (N-terminal biotin on a linker: ado-ado)
Test readout: pKd
Number, no unit, nothing else.

binder="PLATCDETSI [SEMA4F, O95754]" readout_value=4.47
binder="NSTHNLKDYV [CLDN20, P56880]" readout_value=4.56

Any idea what pKd was measured for SKQFDKNAYV [CLDN10, P78369] ? 5.11

Value lookup for pKd; key = KIEDVEITLV [FCHSD2, O94868] 4.64
